Test system: H9c2 cardiomyocytes, 2-deoxyglucose stress, ATP luminescence, 2 h
ASSAY METHOD TEXT: H9c2 cell survival under 2-deoxyglucose stress – uHTS hits, dose response (AID 588780)
Activity calls are given as the source filed them.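 The calls were made as follows: active = compounds whose fitted half-maximal concentration in the cell-protection dose series is at or below a set limit; inactive = the rest.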
MEASUREMENT KIND: IC50

-- ask Identify IC50 associated with the compound COc1ccc(-n2nc(C(=O)NCC(=O)Nc3cc(OC)c(OC)c(OC)c3)c3ccccc3c2=O)cc1Cl
-- reply > 79 µM (inactive)

-- ask Please indicate IC50 recorded for CCC(Oc1ccccc1)C(=O)Nc1ccccc1C(=O)N1CCCCC1 (stereo unspecified)
-- reply 25.3 µM

-- ask Tell me its IC50 given O=S(=O)(c1ccccc1)N1CCN(c2nc(-c3cccnc3)nc3ccccc23)CC1 as the entry.
-- reply 12.4 µM

-- ask Return the recorded IC50 value; entry: COCCn1nnnc1CN(CCc1ccccc1)Cc1cc2cc(OC)ccc2[nH]c1=O
-- reply > 79 µM (inactive)

###

System: H9c2 cardiomyocytes, 2-deoxyglucose stress, ATP luminescence, 2 h
ASSAY METHOD TEXT: H9c2 cell survival under 2-deoxyglucose stress – uHTS hits, dose response (AID 588780)
Active and inactive are the calls of the source.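 Rule for the calls: active = compounds whose fitted half-maximal concentration in the cell-protection dose series is at or below a set limit; inactive = the rest.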
Give one outcome, nothing more. List: label 1 = active, label 0 = inactive

Recorded results for 5 compounds are shown here.
# COMPOUND, TESTED SYSTEM, CLASS ASSIGNMENT
data = [
    ("COc1cc(/C=C/c2nc3ccccc3c(=O)n2-c2ccc(O)cc2)ccc1O", "H9c2 cardiomyocytes, 2-deoxyglucose stress, ATP luminescence, 2 h", "label 1"),
    ("O=c1[nH]c(-c2cccnc2)nc2ccccc12", "H9c2 cardiomyocytes, 2-deoxyglucose stress, ATP luminescence, 2 h", "label 0"),
    ("CCCCCCSc1ccc([C@H]2N[C@@](Cc3ccccc3)(C(=O)OC)[C@H]3C(=O)N(C)C(=O)[C@@H]23)cc1", "H9c2 cardiomyocytes, 2-deoxyglucose stress, ATP luminescence, 2 h", "label 0"),
    ("O=C(Nc1cccc(N=Cc2cc(Cl)cc(Br)c2O)c1)c1ccco1", "H9c2 cardiomyocytes, 2-deoxyglucose stress, ATP luminescence, 2 h", "label 1"),
    ("Cc1ccc(NC(=O)c2cc(-c3cccs3)nc3ccccc23)nc1", "H9c2 cardiomyocytes, 2-deoxyglucose stress, ATP luminescence, 2 h", "label 1"),
]

-- ask Fill in: this test's call for O=C(CCCSc1nc2sc3c(c2c(=O)[nH]1)CCC3)NCCO is ___
-- reply label 0

-- ask Per the records of this test, what outcome belongs to Nc1c(C(=O)NC2CCCC2)c2nc3ccccc3nc2n1N ?
-- reply label 0

-- ask I'd appreciate the recorded outcome for CS(=O)(=O)Nc1cccc(NC(=O)c2cccc3c(-c4cccc(C(N)=O)c4)coc23)c1 from this test.
-- reply label 0

-- ask Hello, I am checking results. What call was entered for COc1cccc(-c2cnc3c(NC(C)=O)cc(-c4cccc(NS(C)(=O)=O)c4)cn23)c1 ?
-- reply label 0

###

Test system: H9c2 cardiomyocytes, 2-deoxyglucose stress, ATP luminescence, 2 h
ASSAY METHOD TEXT: H9c2 cell survival under 2-deoxyglucose stress – uHTS hits, dose response (AID 588780)
The source made the active and inactive calls.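 Rule for the calls: active = compounds whose fitted half-maximal concentration in the cell-protection dose series is at or below a set limit; inactive = the rest.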
Give one outcome, nothing more. List: active, inactive

Consider the following illustrative entries.
# COMPOUND, CLASS ASSIGNMENT
records = [
    ("O=C(COc1cccc2c1CCNC2=O)NC1CCCCC1", "inactive"),
    ("CC(=O)c1ccc(-c2[nH]c3ccccc3c2CCN2C(=O)c3ccccc3C2=O)cc1", "inactive"),
    ("COc1ccc(-c2cc3nc(C)cc(N4CCN(C(=O)c5ccoc5)CC4)n3n2)cc1", "inactive"),
    ("CC(=O)CCc1ccc(Oc2nc(-c3cccnc3)nc3ccccc23)cc1", "inactive"),
    ("COc1cc(-c2cnc3c(NC=O)cc(-c4ccsc4)cn23)cc(OC)c1OC", "inactive"),
]

Query compound follows.
-- ask Field: outcome | Entry: CC(OC(=O)Cc1n[nH]c(=O)c2ccccc12)C(=O)Nc1ccc(F)cc1Cl (stereo unspecified)
-- reply inactive

###

System: H9c2 cardiomyocytes, 2-deoxyglucose stress, ATP luminescence, 2 h
ASSAY METHOD TEXT: H9c2 cell survival under 2-deoxyglucose stress – uHTS hits, dose response (AID 588780)
Active and inactive are the calls of the source.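 Rule for the calls: active = compounds whose fitted half-maximal concentration in the cell-protection dose series is at or below a set limit; inactive = the rest.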
Field 'call' accepts active, inactive

# COMPOUND, CLASS ASSIGNMENT
data = [
    ("COc1ccc(N(CC(=O)Nc2cccc(C(C)=O)c2)S(=O)(=O)c2ccc(NC(C)=O)cc2)cc1", "active"),
    ("CC(=O)Nc1cccc(/C(C)=N/NC(=O)c2cccs2)c1", "inactive"),
    ("O=C(Nc1nc(-c2ccccn2)cs1)c1cccc(-n2cnnn2)c1", "inactive"),
]

-- ask Please state the recorded outcome for this compound: COc1cc(/C=N/NC(=O)c2ccncc2)ccc1OCC(=O)Nc1ccc(C)c(C)c1
-- reply inactive

-- ask Assay result, entry O=C1c2ccccc2NC(c2ccc([N+](=O)[O-])cc2)N1O (stereo not drawn) — outcome?
-- reply inactive

-- ask Dear colleague, could you share the recorded outcome for Cc1ccc2c(c1)nc1c3ccccc3nc(-c3ccccc3N)n21 when you have a moment?
-- reply inactive

-- ask Write down the call the test reported for this compound. Item: CCCCn1c(NC(=O)c2ccccc2)nc2ccccc21
-- reply inactive

-- ask So what was the verdict on O=C(CCCSc1nc2sc3c(c2c(=O)[nH]1)CCC3)NCCCO in this test?
-- reply inactive

-- ask # lookup: test call for CCCN1CCN(C(=O)CCc2nnc3ccc(N4CCN(c5cccc(OC)c5)CC4)nn23)CC1
-- reply inactive

-- ask Just curious, what result did COc1cccc(OC)c1C(=O)Nc1cc(C)nn1-c1nc2ccccc2[nH]1 get here?
-- reply inactive

-- ask Please indicate how the test categorized COc1ccc(N(CC(=O)N/N=C/c2cccs2)S(=O)(=O)c2ccc(OC)c(OC)c2)cc1 .
-- reply active

-- ask Which outcome was assigned to O=c1[nH]c2cc3c(cc2cc1CN(Cc1nnnn1CC1CCCO1)C1CCCCC1)OCO3 (stereo not drawn) in this test?
-- reply inactive

-- ask How was Fc1ccc(NC(=S)Nc2ccc3nccnc3c2)cc1 classified in this test?
-- reply inactive

-- ask # fetch the recorded call for COc1cc(/C=c2\s/c(=C(/C#N)C(=O)N3CCCC3)n(-c3ccccc3)c2=O)ccc1O here
-- reply active

-- ask Check the results log: what was the call for c1ccc(-c2cn3c(n2)CCc2ccc4cccnc4c2-3)cc1 ?
-- reply inactive

###

System: H9c2 cardiomyocytes, 2-deoxyglucose stress, ATP luminescence, 2 h
ASSAY METHOD TEXT: H9c2 cell survival under 2-deoxyglucose stress – uHTS hits, dose response (AID 588780)
Activity calls are given as the source filed them.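 Rule for the calls: active = compounds whose fitted half-maximal concentration in the cell-protection dose series is at or below a set limit; inactive = the rest.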
Assign a class; possible classes are active, inactive

Observe how each entry below is paired with its result.
# COMPOUND, CLASS ASSIGNMENT
records = [
    ("Cc1c(O)ccc2c3c(c(=O)oc12)CCC(C)C3 (stereo unspecified)", "active"),
    ("COc1ccc(OC)c(NC(=O)COC(=O)c2c3c(nc4ccccc24)CCCC3)c1", "inactive"),
    ("COc1ccc(C(=O)NN/C=C/C(=O)c2ccc(Br)cc2)cc1", "inactive"),
    ("COc1cc(-c2cc(NC(C)=O)c3ncc(-c4cc(OC)c(OC)c(OC)c4)n3c2)cc(OC)c1OC", "active"),
    ("O=C(Nc1cccc(Cl)c1)c1nc[nH]c1C(=O)NCCCNC(=O)c1[nH]cnc1C(=O)Nc1cccc(Cl)c1", "inactive"),
    ("Cc1cc(N)n(-c2nc(-c3cccnc3)nc3ccccc23)n1", "active"),
    ("COc1cc(/C=N/NC(=O)c2cccnc2)ccc1OCC(=O)Nc1ccccc1Cl", "inactive"),
    ("Cn1c(=O)c2[nH]c(NN=Cc3cccc(Br)c3)nc2n(C)c1=O", "inactive"),
]

-- ask # lookup: test call for Cc1nc(NC(=O)c2cc3c(C)nn(-c4ccccc4)c3s2)sc1C(=O)Nc1ccccc1
-- reply inactive

-- ask Entry COc1cc(NC(=O)c2cccc3c(-c4cnn(C)c4)coc23)cc(OC)c1OC : call = ?
-- reply inactive

###

Test system: H9c2 cardiomyocytes, 2-deoxyglucose stress, ATP luminescence, 2 h
ASSAY METHOD TEXT: H9c2 cell survival under 2-deoxyglucose stress – uHTS hits, dose response (AID 588780)
Activity calls are given as the source filed them.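 How the source made its calls: active means compounds whose fitted half-maximal concentration in the cell-protection dose series is at or below a set limit; inactive means the rest.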
MEASUREMENT KIND: IC50

-- ask Please report IC50 for the following compound: O=C(Nc1ccccc1)c1nc[nH]c1C(=O)NCCNC(=O)c1[nH]cnc1C(=O)Nc1ccccc1
-- reply > 79 µM (inactive)

-- ask Determine from records and report IC50 for O=C(NCCc1c[nH]c2ccccc12)C(=O)NCC(c1ccco1)N1CCN(c2ccccc2F)CC1 (stereo unspecified)
-- reply > 79 µM (inactive)

-- ask In one line, give reported IC50 of the entry COc1ccc(OCC(=O)NCc2n[nH]c(=O)c3ccccc23)cc1 .
-- reply > 79 µM (inactive)

-- ask Using known records, supply IC50 for CCN(CC)C(=O)CSc1nc2ccccc2c(=O)[nH]1
-- reply > 79 µM (inactive)

-- ask Specify IC50 for COc1ccc(-c2oc3ncnc(NCCN4CCOCC4)c3c2-c2ccc(OC)cc2)cc1 and stop.
-- reply 34.3 µM (inactive)

-- ask Write down IC50 measured for item CCCCC(=O)Nc1cc(C)c2c(=O)oc3ccccc3c2n1
-- reply > 79 µM (inactive)

-- ask Please supply the value of reported IC50 for the item O=C(CCCn1c(SCC(=O)c2ccc(O)c(O)c2)nc2ccccc2c1=O)NCC1CCCO1 (stereo unspecified)
-- reply 38.7 µM (inactive)

-- ask Give the reported IC50 for this compound. COc1ccc(NC(=O)c2oc3ccc(S(=O)(=O)N4CCOCC4)cc3c2C)cc1
-- reply > 79 µM (inactive)

-- ask Using known records, supply IC50 for C[C@H](CO)N1C[C@H](C)[C@@H](CN(C)S(=O)(=O)c2ccc(F)cc2)Oc2ccc(NC(=O)Nc3ccc4c(c3)OCO4)cc2C1=O
-- reply 36 µM (inactive)

-- ask For the compound O=C(Nc1ccccc1)c1cccc2c(-c3cccnc3)coc12 , give its measured IC50 value.
-- reply > 79 µM (inactive)

-- ask Indicate its recorded IC50; the compound in question is CC12C=CC(=O)CC1CCC1C2CCC2(C)C(O)C(O)CC12 (stereo unspecified)
-- reply 12.3 µM

-- ask Input c1ccc(-c2nc(-n3ccnc3)nc(-n3ccnc3)n2)cc1 , output reported IC50.
-- reply > 79 µM (inactive)

-- ask Report IC50 for Cc1ccc2nsnc2c1S(=O)(=O)N(Cc1ccco1)Cc1cc2cccc(C)c2[nH]c1=O
-- reply 25.8 µM

-- ask Return IC50 (reported value) for this compound: CCOC(=O)C1=C(C)NC(C)=C(C(=O)OCCNC(=O)c2cccnc2)C1c1cccc([N+](=O)[O-])c1 (stereo unspecified)
-- reply 28.6 µM

-- ask Give recorded IC50. CCCn1nc(C(=O)Nc2nc(-c3ccccn3)cs2)c2ccccc2c1=O
-- reply > 79 µM (inactive)

-- ask Please supply the value of reported IC50 for the item CCOc1ccc2nc(NC(=O)CN3CCC(n4nnc5cc(F)ccc54)CC3)sc2c1
-- reply > 79 µM (inactive)
